Ref: patent US9315494B2

Attribute: pIC50
tested on: IFNα-stimulated STAT-dependent luciferase reporter in Kit225 T cells; assay: Kit225 T cell assay, IFNα stimulated STAT-dependent luciferase reporter; assay type: cell-based, human; conditions: Kit225 T cells, 200 U/mL human recombinant IFNα, 5-6 hours, luciferase; read-out: IFNα (Kit225 T Cell Inhibition Data)
// pIC50: -log10(molar conc.)

Worked cases, answers included:
The compound CNC(=O)c1cnc(Nc2ccccn2)cc1Nc1ccccc1NS(C)(=O)=O [Example 428] showed pIC50 equal to 6.96

Sure, the documented pIC50 for CNC(=O)c1cnc(Nc2cc(C)c(F)cn2)cc1Nc1ccccc1S(C)(=O)=O [Example 60] is 7.40

Continuing:
The compound identified as CNC(=O)c1cnc(Nc2cc(F)ccn2)cc1Nc1ccccc1NS(C)(=O)=O [Example 427] registered its pIC50 at 6.82

Form: compound = CNC(=O)c1cnc(Nc2cc(C(N)=O)ccn2)cc1Nc1ccc(F)c(F)c1OC [Example 256] ; pIC50 = 6.15

---

test system: IFNα-stimulated STAT-dependent luciferase reporter in Kit225 T cells; assay: Kit225 T cell assay, IFNα stimulated STAT-dependent luciferase reporter; type: cell-based, human; conditions: Kit225 T cells, 200 U/mL human recombinant IFNα, 5-6 hours, luciferase; read-out: IFNα (Kit225 T Cell Inhibition Data)
MEASUREMENT_LABEL: IC50 (nM)
Please state the figure in nM; there is no need to write the unit.

For the molecule CNC(=O)c1cnc(Nc2cccc(F)n2)cc1Nc1ccccc1C(N)=O , the measured IC50 on IFNα-stimulated STAT-dependent luciferase reporter in Kit225 T cells was 260

IFNα-stimulated STAT-dependent luciferase reporter in Kit225 T cells assay, molecule CNC(=O)c1cnc(Nc2ccc(N3CCOCC3)cn2)cc1Nc1ccccc1S(C)(=O)=O , recorded IC50 = 40

Test item CCc1cc(Nc2cc(Nc3ccccc3S(C)(=O)=O)c(C(=O)NC)cn2)ncn1 ; IFNα-stimulated STAT-dependent luciferase reporter in Kit225 T cells; reported IC50 was 120

Others:
Param item: CNC(=O)c1cnc(Nc2cccc(C(F)(F)F)n2)cc1Nc1ccc(Cl)cc1OC ; param system: IFNα-stimulated STAT-dependent luciferase reporter in Kit225 T cells; output IC50: 480

// assay IFNα-stimulated STAT-dependent luciferase reporter in Kit225 T cells, entry CNC(=O)c1cnc(Nc2cc(C)c(F)cn2)cc1Nc1cccc(C(=O)NCC(F)(F)F)c1OC , IC50 value = 20

---

Listed compounds paired with reported pIC50
Test system: IFNα-stimulated STAT-dependent luciferase reporter in Kit225 T cells
Test: Kit225 T cell assay, IFNα stimulated STAT-dependent luciferase reporter
Format: cell-based, human
Conditions: Kit225 T cells, 200 U/mL human recombinant IFNα, 5-6 hours, luciferase; read-out: IFNα (Kit225 T Cell Inhibition Data)
Description: Kit225 T cells with a stably-integrated STAT-dependent luciferase reporter were plated in RPMI (Gibco) containing 10% heat-inactivated FBS (Gibco) and 100 U/mL PenStrep (Gibco). The cells were then stimulated with either 20 ng/mL human recombinant IL-23 or 200 U/mL human recombinant IFNα (PBL InterferonSource) for 5-6 hours. Luciferase expression was measured using the STEADY-GLO® Luciferase Assay System (Promega) according to the manufacturer's instructions.
The value called pIC50 is obtained by taking minus log10 of the concentration in mol/L.

Item CNC(=O)c1cnc(Nc2ccc3[nH]ccc3n2)cc1Nc1ccc(Cl)cc1OC was tested on IFNα-stimulated STAT-dependent luciferase reporter in Kit225 T cells; the reported pIC50 is 5.81

Field pIC50 (IFNα-stimulated STAT-dependent luciferase reporter in Kit225 T cells), entry CNC(=O)c1cnc(Nc2ccc(F)cn2)cc1Nc1ccc(C)cc1 : 5.49

Test item CNC(=O)c1cnc(Nc2cc(F)ccn2)cc1Nc1ccccc1S(C)(=O)=O ; IFNα-stimulated STAT-dependent luciferase reporter in Kit225 T cells; reported pIC50 was 7.05

---
Recorded pIC50 for CNC(=O)c1cnc(Nc2cc(C)nc(C)n2)cc1Nc1cc(F)cc(F)c1OC on IFNα-stimulated STAT-dependent luciferase reporter in Kit225 T cells was 7.70

Short answer on IFNα-stimulated STAT-dependent luciferase reporter in Kit225 T cells for CNC(=O)c1cnc(Nc2ccc(C)cn2)cc1Nc1ccccc1S(C)(=O)=O , pIC50: 7.30

# lookup: CNC(=O)c1cnc(Nc2cccc(OC)n2)cc1Nc1ccccc1C(N)=O on IFNα-stimulated STAT-dependent luciferase reporter in Kit225 T cells, pIC50 = 6.54

Readout pIC50 for CNC(=O)c1cnc(Nc2ccc(C#N)c(C)n2)cc1Nc1ccccc1S(C)(=O)=O , test system IFNα-stimulated STAT-dependent luciferase reporter in Kit225 T cells, was 6.59

GET /values?item= CNC(=O)c1cnc(Nc2cccc(C(F)(F)F)n2)cc1Nc1ccccc1C(N)=O &system= IFNα-stimulated STAT-dependent luciferase reporter in Kit225 T cells returns pIC50: 6.17

Form field, pIC50 with IFNα-stimulated STAT-dependent luciferase reporter in Kit225 T cells, item CNC(=O)c1cnc(Nc2cccc(F)n2)cc1Nc1cc(F)ccc1S(C)(=O)=O : 6.80
